Quick reference for phosphorylation enrichment among some sequences
Target: EPHB2 (UniProt P29323)
Sequence (P29323 whole entry, looked up): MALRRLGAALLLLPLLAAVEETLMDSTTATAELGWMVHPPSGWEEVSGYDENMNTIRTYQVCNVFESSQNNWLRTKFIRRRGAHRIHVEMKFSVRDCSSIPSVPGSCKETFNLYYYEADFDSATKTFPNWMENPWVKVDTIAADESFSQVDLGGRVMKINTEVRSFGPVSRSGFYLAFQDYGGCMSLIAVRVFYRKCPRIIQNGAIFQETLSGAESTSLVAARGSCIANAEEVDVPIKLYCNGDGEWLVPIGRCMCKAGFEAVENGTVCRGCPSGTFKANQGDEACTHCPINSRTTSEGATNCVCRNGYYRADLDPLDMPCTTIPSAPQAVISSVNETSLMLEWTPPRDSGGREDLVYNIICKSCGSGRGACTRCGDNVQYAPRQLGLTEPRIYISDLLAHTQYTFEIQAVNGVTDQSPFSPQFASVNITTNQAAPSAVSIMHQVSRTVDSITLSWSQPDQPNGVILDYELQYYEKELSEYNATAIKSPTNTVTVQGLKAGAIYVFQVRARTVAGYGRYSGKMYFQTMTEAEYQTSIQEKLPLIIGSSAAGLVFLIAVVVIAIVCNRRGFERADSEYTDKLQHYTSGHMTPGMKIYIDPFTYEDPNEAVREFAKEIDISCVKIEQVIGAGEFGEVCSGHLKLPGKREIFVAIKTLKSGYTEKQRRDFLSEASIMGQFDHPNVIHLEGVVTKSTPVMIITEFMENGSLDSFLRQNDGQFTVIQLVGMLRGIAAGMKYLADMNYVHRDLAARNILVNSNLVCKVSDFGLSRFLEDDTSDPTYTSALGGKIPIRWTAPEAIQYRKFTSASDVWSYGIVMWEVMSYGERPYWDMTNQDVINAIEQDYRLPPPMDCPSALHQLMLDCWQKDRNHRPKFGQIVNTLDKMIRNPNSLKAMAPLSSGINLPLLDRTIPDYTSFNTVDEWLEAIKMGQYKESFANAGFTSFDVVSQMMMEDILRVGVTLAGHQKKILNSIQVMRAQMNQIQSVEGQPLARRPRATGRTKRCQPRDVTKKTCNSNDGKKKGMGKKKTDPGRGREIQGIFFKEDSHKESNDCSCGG
Test: phosphorylation enrichment, bacterial display (enrichment ratio); higher = better substrate or ligand; peptides without Tyr show the background
Form rule: numeric answer, no unit written next to it.

[[record]]
monomer_sequence = "ATVRPYRPFII [LRP5_Y1528_A1525V_YF]"
measurement_kind = "phosphorylation enrichment"
measured = 0.336

[[record]]
monomer_sequence = "QTPVLYAMLFH [MPZ_Y220_D224Y_YF]"
measurement_kind = "phosphorylation enrichment"
measured = 4.17

[[record]]
monomer_sequence = "RRIHSHRGHLW [VHL_Y112_Y112H]"
measurement_kind = "phosphorylation enrichment"
measured = 0.732

[[record]]
monomer_sequence = "SDPIIYTLENI [ADGRE1_Y534]"
measurement_kind = "phosphorylation enrichment"
measured = 0.559

[[record]]
monomer_sequence = "GEFHVYRHLRR [PRKRIP1_Y82]"
measurement_kind = "phosphorylation enrichment"
measured = 0.465

[[record]]
monomer_sequence = "DFGSGYPNDPK [RNASEH2A_Y210_YF]"
measurement_kind = "phosphorylation enrichment"
measured = 0.469

[[record]]
monomer_sequence = "SKHHLYSDLQT [PTCHD1_Y84_R82H]"
measurement_kind = "phosphorylation enrichment"
measured = 0.389

[[record]]
monomer_sequence = "HAVYVYDICHV [TWNK_Y508]"
measurement_kind = "phosphorylation enrichment"
measured = 6.29


# sequence HSGVSYFINLC [IGF2R_Y2024_N2020S_YF] ; its phosphorylation enrichment = 0.558

# sequence EFAAGYNVKFD [GPX4_Y123] ; its phosphorylation enrichment = 0.397

# sequence SSNLYYRCLTA [CNGA3_Y169_W171C] ; its phosphorylation enrichment = 0.766

# sequence IMITDYLLLFR [INSR_Y87] ; its phosphorylation enrichment = 0.647

# sequence HNVPICEGYAL [ACTC1_Y168_Y168C] ; its phosphorylation enrichment = 0.513

# sequence CPFNLYAEQLS [HGD_Y40_YF] ; its phosphorylation enrichment = 0.816

----------
Quick reference for SH2 binding enrichment among some sequences
Target: SHP2-C SH2
Assay: SH2 binding enrichment of the phosphorylated peptide, bacterial display (enrichment ratio); higher = better substrate or ligand; peptides without Tyr show the background
Form rule: numeric answer, no unit written next to it.

A selection of reference data follows.
[[record]]
monomer_sequence = "MSSAGYRAAEG [COL6A3_Y543_T538M]"
measurement_kind = "SH2 binding enrichment"
measured = 0.609

[[record]]
monomer_sequence = "TEFIQYMRRKN [MAX_Y73_YF]"
measurement_kind = "SH2 binding enrichment"
measured = 0.54

[[record]]
monomer_sequence = "HAVYVCDICHV [TWNK_Y508_Y508C]"
measurement_kind = "SH2 binding enrichment"
measured = 1.26

[[record]]
monomer_sequence = "GYITSYREEEQ"
measurement_kind = "SH2 binding enrichment"
measured = 0.573

[[record]]
monomer_sequence = "ANRNVYEVEPT [MEGF10_Y1075]"
measurement_kind = "SH2 binding enrichment"
measured = 1.08

[[record]]
monomer_sequence = "ETVHRYVELLD [AP1S3_Y87_I83T]"
measurement_kind = "SH2 binding enrichment"
measured = 1.94


# sequence GVASDYKCIDP [VPS13B_Y1991] ; its SH2 binding enrichment = 0.524

----------
Test system: c-Abl (mouse)
Test: phosphorylation enrichment, bacterial display (enrichment ratio); higher = better substrate or ligand; peptides without Tyr show the background
MEASUREMENT KIND: phosphorylation enrichment
Form rule: numeric answer, no unit written next to it.

A selection of reference data follows.
[[record]]
monomer_sequence = "QEKKGYFEDRC [GLUL_Y336_R341C]"
measurement_kind = "phosphorylation enrichment"
measured = 0.843

[[record]]
monomer_sequence = "FFVVRYCWLRR [MPZ_Y181_YF]"
measurement_kind = "phosphorylation enrichment"
measured = 0.623

[[record]]
monomer_sequence = "VGTKRYVAPEV [ACVRL1_Y375_M376V]"
measurement_kind = "phosphorylation enrichment"
measured = 0.544

[[record]]
monomer_sequence = "IFGASYVPFAA [RBM47_Y541_YF]"
measurement_kind = "phosphorylation enrichment"
measured = 0.496

[[record]]
monomer_sequence = "GCRSKYVGLWR [KCNQ1_Y184_G189R]"
measurement_kind = "phosphorylation enrichment"
measured = 0.409

[[record]]
monomer_sequence = "VQEDIYDEFVV [ALDH2_Y332_E337V]"
measurement_kind = "phosphorylation enrichment"
measured = 1.75

[[record]]
monomer_sequence = "TLLERYGMTKI [ACSF3_Y355_E359K]"
measurement_kind = "phosphorylation enrichment"
measured = 0.728

[[record]]
monomer_sequence = "YLRTGYSVPYG [TGM1_Y370]"
measurement_kind = "phosphorylation enrichment"
measured = 0.777


Then this sequence:
# sequence MGRVNYGAFIN [GLB1_Y485_YF] ; its phosphorylation enrichment = 0.472

----------
Target: Grb2 SH2 (UniProt P62993)
Sequence (P62993 whole entry, looked up): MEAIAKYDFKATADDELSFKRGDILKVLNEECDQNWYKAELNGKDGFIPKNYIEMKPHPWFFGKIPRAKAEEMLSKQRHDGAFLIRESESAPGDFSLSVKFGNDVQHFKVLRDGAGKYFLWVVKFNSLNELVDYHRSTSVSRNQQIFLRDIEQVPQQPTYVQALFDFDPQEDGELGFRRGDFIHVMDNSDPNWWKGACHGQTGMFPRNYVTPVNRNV
Test: SH2 binding enrichment of the phosphorylated peptide, bacterial display (enrichment ratio); higher = better substrate or ligand; peptides without Tyr show the background
Quick reference for SH2 binding enrichment among some sequences
Form rule: numeric answer, no unit written next to it.

A selection of reference data follows.
[[record]]
monomer_sequence = "IEKLTYIDKWF [CPS1_Y872]"
test_system = "Grb2 SH2 (UniProt P62993)"
measurement_kind = "SH2 binding enrichment"
measured = 0.724

[[record]]
monomer_sequence = "LITLVYGCSRQ [TMPRSS6_Y290_S288L]"
test_system = "Grb2 SH2 (UniProt P62993)"
measurement_kind = "SH2 binding enrichment"
measured = 1.29

[[record]]
monomer_sequence = "LDTIQYSKHPP [SQSTM1_Y433]"
test_system = "Grb2 SH2 (UniProt P62993)"
measurement_kind = "SH2 binding enrichment"
measured = 0.652

[[record]]
monomer_sequence = "QEIATYPRLLE [KRT14_Y415_R416P]"
test_system = "Grb2 SH2 (UniProt P62993)"
measurement_kind = "SH2 binding enrichment"
measured = 0.575

[[record]]
monomer_sequence = "LLPNAYIFVVQ [L1CAM_Y418_A415P_YF]"
test_system = "Grb2 SH2 (UniProt P62993)"
measurement_kind = "SH2 binding enrichment"
measured = 0.65


Then this sequence:
# sequence QQLQGYIPSNY [FRK_Y99] ; its SH2 binding enrichment = 0.944

----------
Molecular target: Jak2 (UniProt O60674)
Sequence (O60674 whole entry, looked up): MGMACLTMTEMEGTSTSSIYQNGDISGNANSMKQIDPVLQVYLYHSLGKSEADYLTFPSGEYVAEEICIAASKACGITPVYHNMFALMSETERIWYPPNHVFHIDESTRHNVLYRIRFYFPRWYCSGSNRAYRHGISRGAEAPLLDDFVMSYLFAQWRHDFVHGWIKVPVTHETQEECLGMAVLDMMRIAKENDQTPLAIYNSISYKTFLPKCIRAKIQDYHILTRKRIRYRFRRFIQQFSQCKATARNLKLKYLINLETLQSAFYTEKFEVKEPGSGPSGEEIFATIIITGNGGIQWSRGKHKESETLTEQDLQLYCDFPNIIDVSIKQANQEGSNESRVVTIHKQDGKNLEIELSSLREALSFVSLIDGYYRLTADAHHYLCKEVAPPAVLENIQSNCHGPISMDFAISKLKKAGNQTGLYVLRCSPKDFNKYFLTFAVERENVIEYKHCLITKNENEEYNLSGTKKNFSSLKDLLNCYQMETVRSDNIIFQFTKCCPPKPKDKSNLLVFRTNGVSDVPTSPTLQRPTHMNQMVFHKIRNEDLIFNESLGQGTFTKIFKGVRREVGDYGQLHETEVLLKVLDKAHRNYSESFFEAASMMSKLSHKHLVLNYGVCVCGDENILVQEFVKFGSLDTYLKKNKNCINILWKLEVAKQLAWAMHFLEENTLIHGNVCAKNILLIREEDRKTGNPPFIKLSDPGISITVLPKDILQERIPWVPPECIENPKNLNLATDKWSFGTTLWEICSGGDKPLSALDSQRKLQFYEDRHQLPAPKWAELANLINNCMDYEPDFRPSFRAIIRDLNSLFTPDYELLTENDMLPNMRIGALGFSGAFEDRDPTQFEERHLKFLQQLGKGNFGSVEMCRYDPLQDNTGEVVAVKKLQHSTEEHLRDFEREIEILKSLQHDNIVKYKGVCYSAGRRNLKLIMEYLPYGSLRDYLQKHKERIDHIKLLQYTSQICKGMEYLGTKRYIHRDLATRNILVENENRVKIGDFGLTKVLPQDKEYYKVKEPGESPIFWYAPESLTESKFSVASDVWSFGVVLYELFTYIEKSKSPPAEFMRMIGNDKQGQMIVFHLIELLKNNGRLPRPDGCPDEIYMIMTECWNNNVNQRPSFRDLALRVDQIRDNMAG
Experiment: phosphorylation enrichment, bacterial display (enrichment ratio); higher = better substrate or ligand; peptides without Tyr show the background
Quick reference for phosphorylation enrichment among some sequences
Form rule: numeric answer, no unit written next to it.

[[record]]
monomer_sequence = "GEDEPYAEPYA [APBA1_Y183_S184A]"
measurement_kind = "phosphorylation enrichment"
measured = 1.33

[[record]]
monomer_sequence = "PFSSPYENSLI [EPOR_Y489_N487S_YF]"
measurement_kind = "phosphorylation enrichment"
measured = 0.941

[[record]]
monomer_sequence = "FSQQTYYRVSN [ABCD1_Y180]"
measurement_kind = "phosphorylation enrichment"
measured = 6.78

[[record]]
monomer_sequence = "HAVYVYDICHV [TWNK_Y508]"
measurement_kind = "phosphorylation enrichment"
measured = 1.01

[[record]]
monomer_sequence = "KDGNGYISVAE [CALM3_Y100_A103V]"
measurement_kind = "phosphorylation enrichment"
measured = 0.671

[[record]]
monomer_sequence = "ADFPDYKFRPR [SOX11_Y116_YF]"
measurement_kind = "phosphorylation enrichment"
measured = 0.728

[[record]]
monomer_sequence = "LDTIQYSKHPP [SQSTM1_Y433]"
measurement_kind = "phosphorylation enrichment"
measured = 1.07


Then this sequence:
# sequence PFVFFYSFLLK [PTEN_Y178_R173P_YF] ; its phosphorylation enrichment = 2.1

----------
Target: Fyn (UniProt P06241)
Sequence (P06241 whole entry, looked up): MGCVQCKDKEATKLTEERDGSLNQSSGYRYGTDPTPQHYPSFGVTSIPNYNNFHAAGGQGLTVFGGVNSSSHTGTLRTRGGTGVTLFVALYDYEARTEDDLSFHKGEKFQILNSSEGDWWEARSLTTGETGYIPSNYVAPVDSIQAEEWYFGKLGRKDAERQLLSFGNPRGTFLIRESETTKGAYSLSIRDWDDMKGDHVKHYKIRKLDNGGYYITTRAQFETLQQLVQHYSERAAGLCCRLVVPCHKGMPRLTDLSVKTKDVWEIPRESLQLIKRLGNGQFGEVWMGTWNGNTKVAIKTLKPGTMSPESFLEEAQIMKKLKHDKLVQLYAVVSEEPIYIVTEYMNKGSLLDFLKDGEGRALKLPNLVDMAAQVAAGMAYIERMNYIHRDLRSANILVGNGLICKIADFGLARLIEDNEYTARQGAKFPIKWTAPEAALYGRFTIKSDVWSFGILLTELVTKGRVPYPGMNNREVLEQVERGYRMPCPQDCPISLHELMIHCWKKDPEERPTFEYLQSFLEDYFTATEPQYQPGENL
Experiment: phosphorylation enrichment, bacterial display (enrichment ratio); higher = better substrate or ligand; peptides without Tyr show the background
We use 0.5 as the dividing line for phosphorylation enrichment: on or above the line is y, below is n.

[[record]]
monomer_sequence = "SEKVVYRRFTE [NCF1_Y41]"
assigned_label = "n"

[[record]]
monomer_sequence = "GDPTEYYSTAI [IGSF22_Y501]"
assigned_label = "y"

[[record]]
monomer_sequence = "MSLPGYKLVTG [GJA1_Y286_P283L]"
assigned_label = "n"

[[record]]
monomer_sequence = "FVGGFYGGCNE [CTSC_Y352_YF]"
assigned_label = "y"

[[record]]
monomer_sequence = "MDDPRYGVCPL [ZNF100_Y6_M8V]"
assigned_label = "y"


State whether the measured phosphorylation enrichment reaches 0.5, counting equality as reaching it, for AGIENYKSRFG [NKD2_Y256_T257K] n

State whether the measured phosphorylation enrichment reaches 0.5, counting equality as reaching it, for LSQDVYEEDSF [RET_Y900_R897Q_YF] y

State whether the measured phosphorylation enrichment reaches 0.5, counting equality as reaching it, for YSIAQYCCRMG [LRRK2_Y2023_G2019S] y

State whether the measured phosphorylation enrichment reaches 0.5, counting equality as reaching it, for QCTSAYLLQPE [NANS_Y188_P189L] y

State whether the measured phosphorylation enrichment reaches 0.5, counting equality as reaching it, for LVTAWYIGFLC [KCNQ2_Y237] y

State whether the measured phosphorylation enrichment reaches 0.5, counting equality as reaching it, for PVQAAYQKVVD [HBB_Y131_A136D] y

State whether the measured phosphorylation enrichment reaches 0.5, counting equality as reaching it, for GLIPAYHRVIM [NMNAT1_Y64] y

State whether the measured phosphorylation enrichment reaches 0.5, counting equality as reaching it, for ISDEAYVMAGV [ERBB2_Y772_L768S] y

State whether the measured phosphorylation enrichment reaches 0.5, counting equality as reaching it, for AHAGGYGAEAL [HBA1_Y25_E24G] n

State whether the measured phosphorylation enrichment reaches 0.5, counting equality as reaching it, for HILFRYPKEFQ [IDS_Y234_P231L] y

State whether the measured phosphorylation enrichment reaches 0.5, counting equality as reaching it, for GHEYIYVDPMQ [PDGFRA_Y574] y

State whether the measured phosphorylation enrichment reaches 0.5, counting equality as reaching it, for HAVYVYDICHV [TWNK_Y508] y

State whether the measured phosphorylation enrichment reaches 0.5, counting equality as reaching it, for GYEEAYSVSKK [PAFAH1B1_Y28_F31S] n

State whether the measured phosphorylation enrichment reaches 0.5, counting equality as reaching it, for GARGRYVMGGP [TNK1_Y277] n
